assay: Stability confirmation test (impurity formation during storage under severe conditions, liquid chromatography); format: physicochemical; conditions: high-humidity exposure condition (60° C., 95% relative humidity), Initial
MEASURED_ATTRIBUTE: Peak area of main component (%)

Determine from records and report Peak area of main component for CNCc1cn(S(=O)(=O)c2cccc(F)c2)c(-c2ccc(F)cc2F)c1OC.O=C(O)CCC(=O)O [Example 3-1]
99.55

Determine from records and report Peak area of main component for CNCc1cn(S(=O)(=O)c2cccc(F)c2)c(-c2ccc(F)cc2F)c1OC.O=C(O)/C=C/C(=O)O [Example 5-1]
99.38

Determine from records and report Peak area of main component for CNCc1cn(S(=O)(=O)c2cccc(F)c2)c(-c2ccc(F)cc2F)c1OC.Cl [Example 1-1]
99.82

Determine from records and report Peak area of main component for CNCc1cn(S(=O)(=O)c2cccc(F)c2)c(-c2ccc(F)cc2F)c1OC.O=C(O)C(O)C(O)C(=O)O [Example 4-1]
99.52

Data origin: patent US11858894B2
